# Test system: TDF;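 note: TDF denotes transformed human dermal fibroblasts of mesenchymal origin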
# PROTOCOL_DETAILS: cell number relative to DMSO (% of DMSO); higher = more cells (less growth inhibition / toxicity)
# DETAILS: concentration: 10 µM; 24 h
# cutoff 100 applies to cell number; >= gives t, < gives f

Recorded results for 3 compounds are shown here.
1. CC(=O)N1CCN(C(=O)/C=C/c2ccc(Sc3ccccc3C(C)C)c([N+](=O)[O-])c2)CC1 | f
2. CCN(CC)CCNC(=O)c1cc(Cl)c(N)cc1OC [Metoclopramide] | t
3. O=C1NC(=O)c2c1c(-c1ccccc1)cc1[nH]c3ccc(O)cc3c21 | f

Request: Check this compound for cell number at or above 100: COC1C(OC(N)=O)C(O)C(Oc2ccc3c(O)c(NC(=O)c4ccc(O)c(CC=C(C)C)c4)c(=O)oc3c2C)OC1(C)C.[Na+] (stereo not drawn) [Novobiocin.Na]
Response: t

Request: Check this compound for cell number at or above 100: CC(NC(=O)C(C#N)=Cc1ccc(O)c(O)c1)c1ccccc1 (stereo not drawn) [Tyrphostin AG 835]
Response: f

Request: Check this compound for cell number at or above 100: C=C1NC2(C(=O)COC(C)=O)C(CC3C4CCC5=CC(=O)C=CC5(C)C4C(O)CC32C)O1 (stereo not drawn)
Response: t

Request: Check this compound for cell number at or above 100: Nc1ncnc2c1ncn2C1OC(C(=O)NC2CC2)C(O)C1O (stereo not drawn) [5'-(N-Cyclopropyl)carboxamidoadenosine]
Response: f
